B1: Hairpin Ribozyme (parent)
chain: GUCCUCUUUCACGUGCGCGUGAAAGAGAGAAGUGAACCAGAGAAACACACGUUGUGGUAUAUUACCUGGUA

variants of: B1; test: self-cleavage, relative activity (ratio to wild type); higher = more cleavage; co-transcriptional
Could you label it YES if measured self-cleavage is 0.2 or higher, and NO otherwise?

MUTATION_NOTATION	ANSWER_LABEL
U9G A64C	NO
G27U G42A	NO
C6A C38G	NO
G21U A44G	NO
A11C G25A	YES
U7A C46U	NO
A45G G54C	NO
A35C G51C	YES
C12G G56A	NO
G13U A43U	NO
U20G A28U	YES
A11C G21U	YES
C38G G57A	NO
C6A U62A	NO
G57C	NO
U55A G69C	YES
U14G U20C	YES
C18U A59U	NO
G29C U55G	NO
A35U G40C	NO
U7C A24G	YES
C12U U55A	NO
U2G A49U	NO
C3G U8C	NO
A22C G68A	NO
A22G U70A	YES
C3U C66A	NO
A59C G68C	YES
U8A C48A	NO
C3A U60G	YES
U7C U53A	YES
C12A C66U	YES
G1U C50G	NO
C38G U52A	NO
A11U A49C	YES
G29A U58G	NO
G15C G25U	YES
G15A G51U	YES
C46U U53G	YES
G42U G51U	YES
A49U A71U	NO
C6U G56A	NO
G56C A61C	NO
G19A G68C	NO
